Data origin: patent US20100210664A1

Target: human dopamine D2L receptors (long isoform) (Homo sapiens, UniProt P14416)
Construct: expressed in transfected cells; host or cells: HEK-293 cells (membranes)
Sequence (P14416 whole entry, canonical isoform): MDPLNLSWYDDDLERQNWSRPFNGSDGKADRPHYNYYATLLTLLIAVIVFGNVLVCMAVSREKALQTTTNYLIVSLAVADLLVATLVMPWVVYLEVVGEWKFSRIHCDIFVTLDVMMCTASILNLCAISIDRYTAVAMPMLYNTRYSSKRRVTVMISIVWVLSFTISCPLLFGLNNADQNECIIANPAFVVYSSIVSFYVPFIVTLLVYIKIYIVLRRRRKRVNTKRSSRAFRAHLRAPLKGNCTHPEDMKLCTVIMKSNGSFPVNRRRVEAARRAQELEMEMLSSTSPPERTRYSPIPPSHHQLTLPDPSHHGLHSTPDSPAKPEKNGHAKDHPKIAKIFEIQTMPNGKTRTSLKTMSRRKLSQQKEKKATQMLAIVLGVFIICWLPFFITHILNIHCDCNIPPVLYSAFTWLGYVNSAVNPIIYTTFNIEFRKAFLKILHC
Assay: Dopamine D2L receptor binding, displacement of [125I] iodospiperone
Settings: ratio Ki(D2L)/Ki(D3); HEK-293 membranes
measured-attribute: Selectivity vs. D2L, Ki(D2L)/Ki(D3)

Cc1nc(N2CCN[C@@H](C)C2)ccc1NS(=O)(=O)c1ccc([C@H](C)CF)cc1 [Example 1]: >50
COc1nc(N2CCNCC2)ccc1NS(=O)(=O)c1ccc([C@H](C)C(F)(F)F)cc1 [Example 18]: >50
COc1nc(N2CCNCC2)ccc1NS(=O)(=O)c1ccc(C(C)C(F)F)cc1 (stereo not shown) [Example 16]: >50
COc1nc(N2CCNCC2)ccc1NS(=O)(=O)c1ccc([C@H](C)CF)cc1 [Example 15]: >50
Cc1nc(N2CCNCC2)ccc1NS(=O)(=O)c1ccc([C@@H](C)C(F)(F)F)cc1 [Example 12]: >50
COc1nc(N2CCNCC2)ccc1NS(=O)(=O)c1ccc(C(C)C(F)(F)F)cc1 (stereo not shown) [Example 17]: >50
Cc1nc(N2CCNCC2)ccc1NS(=O)(=O)c1ccc([C@H](C)C(F)F)cc1 [Example 9]: >50
Cc1nc(N2CCN[C@@H](C)C2)ccc1NS(=O)(=O)c1ccc([C@@H](C)CF)cc1 [Example 2]: >50
Cc1nc(N2CCNCC2)ccc1NS(=O)(=O)c1ccc(C(C)C(F)(F)F)cc1 (stereo not shown) [Example 11]: >50
COc1nc(N2CCNCC2)ccc1NS(=O)(=O)c1ccc([C@@H](C)CF)cc1 [Example 14]: >50
Cc1nc(N2CCNCC2)ccc1NS(=O)(=O)c1ccc([C@H](C)CF)cc1 [Example 6]: >50
Cc1nc(N2CCNCC2)ccc1NS(=O)(=O)c1ccc([C@@H](C)CF)cc1 [Example 5]: >50
Cc1nc(N2CCNCC2)ccc1NS(=O)(=O)c1ccc(C(C)C(F)F)cc1 (stereo not shown) [Example 8]: >50
Cc1nc(N2CCNCC2)c(Br)cc1NS(=O)(=O)c1ccc([C@H](C)CF)cc1 [Example 7, reference compound]: >10
Cc1nc(N2CCNCC2)ccc1NS(=O)(=O)c1ccc([C@H](C)C(F)(F)F)cc1 [Example 13]: >50
Cc1nc(N2CCNCC2)ccc1NS(=O)(=O)c1ccc([C@@H](C)C(F)F)cc1 [Example 10]: >50

###

Listed here: items and their measured pKi.
Target: human dopamine D3 receptors (Homo sapiens, UniProt P35462)
Sequence (P35462 whole entry): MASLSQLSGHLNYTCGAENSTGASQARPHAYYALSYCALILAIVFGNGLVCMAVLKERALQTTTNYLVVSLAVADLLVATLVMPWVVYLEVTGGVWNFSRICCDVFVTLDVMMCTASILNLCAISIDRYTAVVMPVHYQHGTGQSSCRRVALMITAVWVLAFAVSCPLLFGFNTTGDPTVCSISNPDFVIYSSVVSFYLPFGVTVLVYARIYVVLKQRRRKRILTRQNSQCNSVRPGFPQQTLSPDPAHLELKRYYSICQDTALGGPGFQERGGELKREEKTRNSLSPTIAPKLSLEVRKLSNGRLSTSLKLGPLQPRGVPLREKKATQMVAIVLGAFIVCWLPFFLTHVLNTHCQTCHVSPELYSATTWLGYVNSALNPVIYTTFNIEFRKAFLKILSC
pKi: −log10 of the molar value.
measured-attribute: pKi

Cc1nc(N2CCNCC2)c(Br)cc1NS(=O)(=O)c1ccc([C@H](C)CF)cc1 [Example 7, reference compound]: > 6.00
Cc1nc(N2CCNCC2)ccc1NS(=O)(=O)c1ccc(C(C)C(F)F)cc1 (stereo not shown) [Example 8]: > 8.00
Cc1nc(N2CCNCC2)ccc1NS(=O)(=O)c1ccc([C@@H](C)C(F)F)cc1 [Example 10]: > 8.00
Cc1nc(N2CCN[C@@H](C)C2)ccc1NS(=O)(=O)c1ccc([C@H](C)CF)cc1 [Example 1]: > 8.00
